System: Bacillus subtilis
Assay: Antimicrobial activity against Bacillus subtilis after 18 hrs by disk diffusion method
Format: functional
parameter: inhibition zone (IZ) (mm)
Your answer should be a plain number; it is taken to be in mm.

What reported inhibition zone (IZ) corresponds to O=C(N[C@H](CO)[C@H](O)c1ccc([N+](=O)[O-])cc1)C(Cl)Cl on Bacillus subtilis?
26.8

Try this compound next: CC(C)CCC[C@@H](C)[C@H]1CC[C@H]2[C@@H]3C=C4N=C(N)O[C@@]45C[C@@H](Cl)CC[C@]5(C)[C@H]3CC[C@]12C
15.2

Try this compound next: CC(=O)O[C@H]1CC[C@]2(C)[C@H]3CC[C@]4(C)[C@@H]([C@H](C)CCCC(C)C)CC[C@H]4[C@@H]3C=C3N=C(N)O[C@@]32C1
13.1

Try this compound next: CC(C)CCC[C@@H](C)[C@H]1CC[C@H]2[C@@H]3C=C4N=C(N)O[C@@]45CCCC[C@]5(C)[C@H]3CC[C@]12C
12.1

* * *

System: Bacillus subtilis
Experiment: Antimicrobial activity against Bacillus subtilis after 18 hrs by macrodilution test
Assay type: functional
parameter: MIC (µg/mL)
Your answer should be a plain number; it is taken to be in µg/mL.

Reference set, count: 3
compound	u	MIC
CC(=O)O[C@H]1CC[C@]2(C)[C@H]3CC[C@]4(C)[C@@H]([C@H](C)CCCC(C)C)CC[C@H]4[C@@H]3C=C3N=C(N)O[C@@]32C1	µg/mL	32
CC(C)CCC[C@@H](C)[C@H]1CC[C@H]2[C@@H]3C=C4N=C(N)O[C@@]45C[C@@H](Cl)CC[C@]5(C)[C@H]3CC[C@]12C	µg/mL	64
O=C(N[C@H](CO)[C@H](O)c1ccc([N+](=O)[O-])cc1)C(Cl)Cl [CHLORAMPHENICOL]	µg/mL	32

Dear colleague, I am looking for the recorded MIC of the following compound: CC(C)CCC[C@@H](C)[C@H]1CC[C@H]2[C@@H]3C=C4N=C(N)O[C@@]45CCCC[C@]5(C)[C@H]3CC[C@]12C
128
